Would you kindly list Tm for each of these sequences?
Test: melting temperature; fluorescence melt of hairpins on a sequencing array, two-state fit, raised by 9.35 °C to match UV melts
Conditions: sodium 0.088 M
Numeric answer only, unit °C assumed.

Data request: Given GTAAAACCGAAAGGTTAC (((..(((....)))))) , state its recorded Tm.
Data returned: 31

Data request: Also, GATAACGGAAACGTTATC (((((((....))))))) please.
Data returned: 56.4

Data request: Also, GGACGTGGAAACGCGTTC (.(((.(....).))).) please.
Data returned: 44.3

Data request: Also, GATAAGGGAAACCTTATC (((((((....))))))) please.
Data returned: 49.7

Data request: Also, GATCATCTAAATGATC ((((((....)))))) please.
Data returned: 47.4

Data request: Also, GCGACCGGTCGC ((((....)))) please.
Data returned: 62

Data request: Also, GATCCACATTGGATC ((((((...)))))) please.
Data returned: 52.2

Data request: Also, GTTGCACGAAAGTGAAAC (((.(((....))).))) please.
Data returned: 51.8

Data request: Also, GAAAGCGGAAACGCCTTC (((.(((....))).))) please.
Data returned: 34.1

Data request: Also, GGTAGTGGAAACGCTACC (((((.(....).))))) please.
Data returned: 51.7

Data request: Also, ACTCCGAAAGGAGT (((((....))))) please.
Data returned: 68.8

Data request: Also, GTGTGGGGAAACTCACGC (.(((.(....).))).) please.
Data returned: 44.7

Data request: Also, GTAGGGCGAAAGCCTAC (((.(((....)))))) please.
Data returned: 51.8

Data request: Also, GTACGGCGAAAGCCTAC (((.(((....)))))) please.
Data returned: 44.4

Data request: Also, GCTCGTGCGAAAGCAAGC (((..(((....)))))) please.
Data returned: 45.5

Data request: Also, CATACGAAAGTATG (((((....))))) please.
Data returned: 50.4

Data request: Also, GCTTCGGGAAACTGAGGC ((.((.(....).)).)) please.
Data returned: 36.5

Data request: Also, GAGAACCGAAAGGTACTC (((.(((....))).))) please.
Data returned: 50.7

Data request: Also, GCGATGCGAAAGCCTAGC ((.(.((....)).).)) please.
Data returned: 45

Data request: Also, GACCCCGAAAGGGGTGTC ((((((....)))..))) please.
Data returned: 60.6

Data request: Also, GCCCCGCGAAAGCTGTGC ((.(.((....)).).)) please.
Data returned: 30.4

Data request: Also, GCACTGCGAAAGCAGAGC ((.((((....)))).)) please.
Data returned: 65.9

Data request: Also, GATTTTGAAAAAAATC ((((((....)))))) please.
Data returned: 40.7

Data request: Also, GGAATCGAAAGATATCC ((((((....))).))) please.
Data returned: 29.1

Data request: Also, GATCAGCTGGCTGATC ((((((....)))))) please.
Data returned: 64.4

Data request: Also, GTATTGACGAAAGTCTAC (((..(((....)))))) please.
Data returned: 25.1
